method: folding stability dG unfold from trypsin proteolysis; higher = more stable
Please provide measured folding stability dG unfold for the entries that follow.
Give bare numbers, in kcal/mol.

Reference set, count: 2
> print(dat)
                                biosequence            recorded.endpoint         u  value.reported
1  SAGGSAEIEVTVYYDPETGEILVLINFPDETKFEVAVEEFKKLFEKVEAVKLPDGSVLVRSPLKDASAGGSA [r15_1057_TrMRF]  folding stability dG unfold  kcal/mol            1.65
2  SAGGSAGGSAGKIKIEKDKNGNYRVILKNGKVYEFKSIEEAKEELKKKFPNIKEIEIVKTSAGGSAGGSAGG [r11_806_TrROS_Hall]  folding stability dG unfold  kcal/mol            3.21

Here is the next item to consider.
Requested read-out: folding stability dG unfold. Entry: SAGGSAGGSPETLTITVKEKPVRIEINGKVIEVKPGDTITIPKELANNIRIEVNEDGSITITPSAGGSAGGS [r20_150_TrROS_Hall]
1.92

====

Assignment: determine reported folding stability dG unfold for the given sequences.
method: folding stability dG unfold from trypsin proteolysis; higher = more stable
Numbers only, in kcal/mol.

A selection of reference data follows.
> print(dat)
                                biosequence  value.reported
1  SMKIVEVEVFEDPETGKLVVIVKLDGEEVVEVEEGEKVEIEVEPGDTLLVFVVDAETGEIKEEKEIKVEESA [r9_209_TrROS_Hall]           0.541
2  SAGGIKELAKKGYEIKEVTVRVRNKDGSVYEITEIKVVDGELYIKVKNKKTGKIEEKKIPLKDIEIVPSAGG [r13_340_TrROS_Hall]            1.19
3  SAGGLPPGWKPIDIMVLVPPGEPLTEDQVEELAKEIARELQEKGVTIDVRVWPTDDWYFVSVDIQVPDSAGG [r13_442_TrROS]            2.08

Please give the measured folding stability dG unfold for this sequence: SAGGSAGGSAGGWVIRVTIKHPNGKKRTIMIPMPPDNIEEVAKNLMPQGYEIKEPEIFPGSAGGSAGGSAGG [r7_159_TrROS]
0.295

====

I'd be grateful if you could share measured folding stability dG unfold for these entries.
method: folding stability dG unfold from chymotrypsin proteolysis; higher = more stable
Numbers only, in kcal/mol.

Below are worked cases with known answers.
> print(dat)
                                biosequence            recorded.endpoint         u  value.reported
1  SAGGSAGGSAGGGPMLRYTLTFTLPDSTVTKEFSSEEEVEEAKEQLPEEYPVDPNVTVSPSAGGSAGGSAGG [r7_18_JUSTAS]  folding stability dG unfold  kcal/mol          -0.113
2  SAGGSAGGSAGSMTTTTTIVKLPNGTLVLETPTVTTTTFPETGTTTTTTTVTVTVLPGLSSAGGSAGGSAGG [r11_1008_JUSTAS]  folding stability dG unfold  kcal/mol             1.3

// each sequence listed below needs its folding stability dG unfold
1. SAGGSAGGSAGGYDPNDKPVVEVPIELPPNDKKNPDRMKENAEEIANPLQEKGKPDRIVSAGGSAGGSAGGS [r10_723_TrROS]
2. SAGGSAGGSAGSSLPVLETREEGDLVYLLFPETNLLLVVRRGPGEVEVPSAVRVPPDVPLSAGGSAGGSAGG [r17_30_JUSTAS]
3. SAGGSAGGSAMKVLVTVTLTSPDGTKTTLTEEADPAELKGVLEAALPWTVETVTVYPAEELLSAGGSAGGSA [r18_107_JUSTAS]
4. MRRFEFPETGLVVPVVPSPDGRYRVRIYRPGGELVLEVELPDLPIPEGSDAEIRIPLKDLPPDLVTFVEPES [r1_263_TrMRF]
5. SAGGSAGGSVEKLKKALEKLGIKVENVKIEVKTNKNGKKTVTIYVNGKKLSKEEIKKALKEIKSAGGSAGGS [r12_175_TrROS_Hall]

0.907
1.03
0.509
1.46
4.46

====

Kindly state folding stability dG unfold for each of the entries shown.
method: folding stability dG unfold (combined trypsin and chymotrypsin); higher = more stable
Numbers only, in kcal/mol.

Some entries whose results are on file:
> print(dat)
                                biosequence  value.reported
1  SAGGSAGGSAGGMYRVEIETKGNKKVYIFPNLSPEELAKFLEDPKVVSYKVEKLSPEELESAGGSAGGSAGG [r7_502_JUSTAS]            2.27
2  SAGGKKKKREIEIQIPVPDEEMKKNGMDPSEFAEELAKELQSLLPPGFEDIDLDVEPHPNGWPRIKIESAGG [r13_271_TrROS]          -0.724
3  SAEPITITWPNGMQIPLYKDDDGEIEIKIQMYDPKDGKPVGEQEQRIDPDDNTIEFRFPNGWPFSITIPDSA [r9_56_TrROS]           0.473
4  SAGGSAGGSAGKPNIKKEANLEIFVTEDELEKALEIVKKLEEEGIEVKEAKIYVLKPEEGSAGGSAGGSAGG [r11_533_TrMRF]          -0.318

Dear colleague, could you please provide folding stability dG unfold for the sequences listed below?
1. SSSPSGLSVTSSTVTKVETDPGPGNVTTVTVTTLNNSVLIIPLPGKPLVIPTNTTVETTYTVPPDDPSPASA [r9_531_JUSTAS]
2. SKPNLEVKEVEIKMTAEEIKKLLKPNVTKIEKVNGKYYVTVKVNGVLVKIEIKYDKETNEVTVKIYVIKPSA [r9_604_TrROS_Hall]
3. SAGGTLKVTEEEVSESEFESPGLPLRRTTTTYTLVDPVTGKPVPTSKKVTVETLETPEGRVLETVVTSSAGG [r13_24_JUSTAS]
4. SAHRIMIMFDSPEQAEEIIRKIAEEMGWKPKNIDVEVHPFPVTRPTPDGKKEEHPMYWVTIEIKLKPKKSAG [r14_773_TrROS]
5. SAGGNKNGKPKPTVPFKIMVMKPKPRRNDNNGQEEPRYDMRPVEIEFPLGEEIDLEEALENPDYIFIMSAGG [r13_753_TrROS]
6. SAGGSAGGSAGIKIEWEQMPGGYMQYKVTIPDPNGKPLKIDVHYKSPEDAEEKAKELLKSSAGGSAGGSAGG [r11_819_TrROS]

1.15
2.88
-0.0697
2.37
0.199
0.333

Answer for every listed entry: what is its folding stability dG unfold? The entries follow.
1. VEFEEIETTFTLAAPGGSLVDVDLKTTKKDPKNGKVYIEGTLTTVDPGGVPRTLPTKRVVSPEELKQLVSES [r1_371_JUSTAS]
2. SADEALRRLLENMTPEELAALLAPAVPGPPVEVLVVPREVLPEVLRRLREEFDVEFEEEGDFVRIVVRGSAG [r14_7_TrMRF]

-0.318
2.73

====

method: folding stability dG unfold from chymotrypsin proteolysis; higher = more stable
recorded.endpoint: folding stability dG unfold (kcal/mol)
Answers are plain numbers, in kcal/mol.

See these solved cases before continuing.
> print(dat)
                                biosequence  value.reported
1  SAGGSAGGSAGAPPGSTVTVTYTVTTTVTDRVPDGPGFTNPHTLTSTVTTTVNVGHPDLVSAGGSAGGSAGG [r11_734_TrMRF]         0.00274
2  SAGGSAGGSAMRAVVVAFPPDGPPRVFPTDDLAPDERRVTFDPETGELALIEVLPEDGDPASAGGSAGGSAG [r3_356_TrMRF]          0.0788
3  SAGGSAGGKLSIPIHIPGLTPEEARKIVKYFAAAGIPPDNVTIEVQPVPPVPPMTPEEMEKHNKSAGGSAGG [r6_246_TrROS]           0.988

Item under review: SAGGSAGGSKKKLKLVIKLKKGEKAPTAEELKKKLEELGFEIKDIKVVEKDGELYVVLEIELKSAGGSAGGS [r12_1052_TrROS_Hall] . Reported folding stability dG unfold?
3.4

====

method: folding stability dG unfold from chymotrypsin proteolysis; higher = more stable
For each of the sequences below, state its folding stability dG unfold.
Answers are plain numbers, in kcal/mol.

Answered cases to consult:
> print(dat)
                                biosequence         u  value.reported
1  SAGGEVKVEIKYDKKKNKIEIKVIVRDKETGEWKELSAEEIAKLLKKKLKLPNVKEIKVEVYEPGEKPSAGG [r13_327_TrROS_Hall]  kcal/mol            1.98
2  SAGPWWMITIRLPGNKTITIMFPGVKVEVDPKNNTIRIRNPGLGHSIEFKFDPPGKIKDVDIEPIPPNASAG [r5_342_TrROS]  kcal/mol            4.49

Working through the 6 sequences below one at a time, give folding stability dG unfold for each.
1. SAGGSATKELVLEIAEEIAPRFQKEGWPIKRVTVKVVRTPDGQVTIPVRIRFPDGKPIMQWNITIPSAGGSA [r15_232_TrROS]
2. SAGKPKPEETVTLVLEVPKENPIKVEELFEKLPDVKFVEVKVEPLPDDRVLITITVLPEDVEKIKKALGSAG [r5_554_TrMRF]
3. KKKYLVLLEARPRLYEFDENGKLIREIPLLVPFIGEGNDPEKVKEAAEKLFGEEVKILEVFPLEEVEEGKIS [r1_493_TrMRF]
4. SSSAEIRAYRFPDFWLVEIDLRDGDKLVGTAVFPNDGSVSLEEVAEAFRAAHPDFDVEISAIEPVPPPPPSA [r9_364_TrMRF]
5. SAGGKEKKPKVELKITSISEFEGGLVIEGEATTPTKKIKVLAVYDPSTGKITVWRETPEGIEPLAEFGSAGG [r13_445_TrMRF]
6. SAGGPMRRVKVEIKDPDGGKIEIDDVYVPDNSVWAKIFLPDLGREIPFPFDTPDQAVEWIKDFVLQLSAGGS [r16_736_TrROS]

1: 0.00828; 2: 2.13; 3: 2.69; 4: 2.08; 5: 2.4; 6: 1.15

Provide folding stability dG unfold for all items below, preserving their order.
1. SMTLVLENEDGSLYRIEFDEETGEIYIYNAETGEKYRITFKDGKTEEINAKDLSLEELKALPGLKIEPVPSA [r9_205_TrROS_Hall]
2. MKYTLTLTDPTTPTTSTLTVPNDPEKALALLREAKAANPNLTATLTGVTSEEIVEAAKKAGLKDIKPKTAAS [r1_114_JUSTAS]

1. 3.28
2. 0.301

Look at each sequence and report its folding stability dG unfold.
1. SAGGSAGGMNIQILKVDPDNGTITLAIPVDNWIVAISIKIRPDPNNPGMFKLDIDIHWFPADDISAGGSAGG [r6_372_TrROS]
2. SAGKPVKVTLNVVRLPGTGELVVFAEITYPDGSTAYAVARADLATGTVHVKLFDPNGKLLAELTVTLKPSAG [r14_524_TrMRF]
3. SAGGSAGGSAGGMEFKPGQEIEIVLKDENGRLIVIKAKVKKVDGKLVIEIEEAYELDDLSAGGSAGGSAGGS [r10_744_TrROS_Hall]
4. SAGGSAGGSAGGSAPYPNTVVPTPLLSSVVTETTVEFFPDGTVVPVSTTTTVVLVYRLLSAGGSAGGSAGGS [r4_288_JUSTAS]
5. SAEMTEEERARRLAEKLREELEELGVEKVEIEFDEEERRVTVRVTLSPEVREKLAERLGLSREELDALLSAG [r14_688_TrROS_Hall]
6. SAGGSAGGSAGGSAPPNLIIFIHVEIKIKEPKFDPGNGKPEYEIEITDIPIQIMPPDDLSAGGSAGGSAGGS [r4_417_TrROS]

4.44
4.62
2
4.75
2.91
2.39

Go through the list and state folding stability dG unfold for each entry.
1. SAGGSAGGSAGGFNIEVVPGEPGWVIKIEFPDHPITAFVDPEDGKLWIYNPDNGMIFPLSAGGSAGGSAGGS [r10_434_TrROS]
2. SAMEVIELEFPSVEELEAALKEKFNVEVEKLPDGTKRIKVEVDGELVLIEITDDKVRIRIISKEELEKLSAG [r14_402_TrROS_Hall]
3. SAGGSAGGSAGGSSTAVIRRPETGEEHTFDLPEDATEEDIRARLEAAGFPPGSEIVEIVESAGGSAGGSAGG [r7_70_JUSTAS]
4. SAGGSAGGSAPKVEPHPVTFTFENAVVTVTRYRVPDEDGNPLYFTSVSVFFLDKDGKPGFVFPSAGGSAGGS [r20_13_TrMRF]
5. SHPDEFPKELVDAIAKAFPNIKRIEVEPLPDKFVLLKVEFIDGDGEGRVAFAVPTPDGETALHEYLVRNPSA [r9_678_TrMRF]
6. SAGNPSLKLKTETQVEVTEVSESVLPDGGYTLTKSKFTVTTTIYDTTKPKVLSTETTEETETVATPLVSAGG [r19_136_JUSTAS]
7. SAGGMNVSYLFSKSVPKEEIEAYLKKLDPNKKYKFEELEPEEIEKLPESIEVIEKPVDETLRLVLVEESAGG [r13_649_JUSTAS]
8. SAGGSAGGSAPLVLVAPGDAPVTVYPDPETGTYVAVFPDGSVLVAPVVGDVVPVVLLPPGLASAGGSAGGSA [r18_405_TrMRF]

1: 1.78; 2: 1.53; 3: 1.91; 4: 4.82; 5: 1.23; 6: 0.442; 7: 0.765; 8: 0.677

Source of measurements: the supplement of paper PMC12764529
